assay: Partition coefficient (n-octanol / water), common logarithm; conditions: poorly water-soluble alcohol (solvent A)
metric-name: LogPA
Reply: number alone, nothing else.

• OCCOc1ccccc1 = 1.16
• CC(O)COc1ccccc1 (stereo not drawn) = 1.51
• OCCCCc1ccccc1 = 2.40
• CC(O)Cc1ccccc1 (stereo not drawn) = 1.71
• OCCCc1ccccc1 = 1.88

### Prompt Reported LogPA, compound OCc1ccccc1 : ____
### Response 1.03

====

Test: Vapor pressure at 20° C.
Assay type: physicochemical
Method: The alcohol used as the poorly water-soluble solvent has a vapor pressure at 20° C. of 0.5 mmHg or less and a surface tension of 30.0 mN/m or more as described above. When a poorly water-soluble alcohol having a vapor pressure at 20° C. of more than 0.5 mmHg forms a film on an ejection opening of a recording head, the film evaporates unfortunately, and the effect of suppressing water evaporation is reduced. […]
metric-name: Vapor pressure (mmHg)
Only the number, expressed in mmHg, is required.

Worked cases, Vapor pressure given:
• OCCCCc1ccccc1 = 0.0
• OCc1ccccc1 = 0.1
• CC(O)Cc1ccccc1 (stereo not shown) = 0.1
• OCCCc1ccccc1 = 0.0
• OCCOc1ccccc1 = 0.0
• CC(O)COc1ccccc1 (stereo not shown) = 0.0

### Prompt Query: Vapor pressure; subject: OCCc1ccccc1
### Response 0.1

====

experiment: Partition coefficient (n-octanol / water), common logarithm; conditions: highly water-soluble solvent (solvent B)
metric-name: LogPB
Enter a number only.

• OCCO [Ethylene glycol] = −1.69
• OCC(O)CO [Glycerol] = −2.32
• CC(O)CO (stereo not drawn) [Propylene glycol] = −1.34
• COCCOCCO [Methyl carbitol] = −1.16
• O=C1CCCN1 [2-Pyrrolidone] = −1.01

// next item, LogPB requested
### Prompt Which LogPB reading was recorded for the compound OCCOCCOCCO [Triethylene glycol] ?
### Response −1.87

====

experiment: Solubility in water at 20° C. (saturated solubility); type: physicochemical; details: solvents used in Comparative Examples
metric-name: Solubility (g/100 g-H2O)
State just the number; it will be interpreted in g/100 g-H2O.

Worked examples follow.
* CCCCCO [Example 1-Pentanol, 1-Pentanol] | 2.20
* CC(=O)OCc1ccccc1 [Benzyl acetate] | 0.30
* COc1ccc(C=O)cc1 [p-Anisaldehyde] | 0.40

--- query ---
### Prompt Please look up its Solubility: C=CC(C)(O)CCC=C(C)C (stereo not shown) [Linalool]
### Response 1.50

====

Documented Surface tension across a set of compounds
assay: Surface tension; type: physicochemical
Provide the reading as a plain figure in mN/m.

• OCCCc1ccccc1 = 38.9

### Prompt For the compound shown here, OCCc1ccccc1 , give the reported Surface tension.
### Response 39.7

### Prompt I have this compound here, OCc1ccccc1 , and I need its recorded Surface tension.
### Response 39.0

====

assay: Solubility in water at 20° C. (saturated solubility); type: physicochemical
metric-name: Solubility

As a guide, the following entries are already answered.
- OCCc1ccccc1: 2.20 g/100 g-H2O
- OCc1ccccc1: 4.29 g/100 g-H2O
- CC(O)Cc1ccccc1 (centres unmarked): 0.58 g/100 g-H2O

### Prompt For the compound OCCCc1ccccc1 , what Solubility is on record?
### Response 0.57 g/100 g-H2O

### Prompt Find the recorded Solubility belonging to OCCOCCOCCO and report it.
### Response ≥ 20 g/100 g-H2O

### Prompt Field request: Solubility | item: OCCOc1ccccc1
### Response 2.67 g/100 g-H2O

### Prompt Please give the measured Solubility for this compound: CC(O)COc1ccccc1 (centres unmarked)
### Response 1.10 g/100 g-H2O

### Prompt // query Solubility value for entry OCCCCc1ccccc1
### Response 0.10 g/100 g-H2O
